Data credit: ChEMBL document CHEMBL4725465

# Assay method text: AUC (0 to t) in Sprague-Dawley rat at 1 mg/kg, iv measured up to 24 hrs
# Assay type: ADME, organism-based
# Parameters: route intravenous, dose 1 mg/kg, time <=24
# Experimental context: in vivo
Where a SMILES comes first, the peptide text is derived from it. [ ]: non-standard residue; d: D form. The star is where a group is joined. Gly(N-(2R-Ph-propyl)) = C[C@@H](CNCC(=O)O)c1ccccc1; X1 = CNC(=O)NC1CCN(*)CC1
Assay readout: AUC(0-t) at 24 h (ng·h/mL)
Numeric answer only, unit ng·h/mL assumed.

Return value of AUC(0-t) at 24 h for input CNC(=O)NC1CCN(C(=O)[C@@H](CCCCN)NC(=O)[C@@H](CC(C)C)NC(=O)[C@@H](Cc2ccccc2)NC(=O)CNC[C@H](C)c2ccccc2)CC1 (H-[Gly(N-(2R-Ph-propyl))][dF][dL][dK]-X1) , no commentary. 1550

* * *

EC50 reference
# Measured on: Kappa-type opioid receptor (Homo sapiens, UniProt P41145)
# Sequence (P41145 whole entry): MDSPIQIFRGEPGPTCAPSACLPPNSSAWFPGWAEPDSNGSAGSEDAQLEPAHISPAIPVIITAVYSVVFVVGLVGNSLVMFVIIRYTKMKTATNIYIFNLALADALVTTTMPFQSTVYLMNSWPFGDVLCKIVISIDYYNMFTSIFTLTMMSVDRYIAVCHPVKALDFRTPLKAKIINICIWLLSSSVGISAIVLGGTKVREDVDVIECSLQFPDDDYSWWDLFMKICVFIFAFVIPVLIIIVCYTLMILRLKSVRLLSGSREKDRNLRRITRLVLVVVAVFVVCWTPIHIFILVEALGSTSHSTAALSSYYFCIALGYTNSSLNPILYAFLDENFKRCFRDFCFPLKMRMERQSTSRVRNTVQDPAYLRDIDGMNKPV
# Assay method text: Agonist activity at human kappa opioid receptor expressed in HEK293 cells assessed as inhibition of forskolin-induced cAMP accumulation measured after 5 hrs by One-Glo luciferase assay
Where a SMILES comes first, the peptide text is derived from it. [ ]: non-standard residue; d: D form. The star is where a group is joined. Piperidin1yl(4-NH2,4-COOH) = NC1(C(=O)O)CCN(*)CC1; Gly(NCH2CH2Ph) = O=C(O)CNCCc1ccccc1
Reply numerically in nM, unit not repeated.

State its EC50 for this compound: CC(C)C[C@@H](NC(=O)[C@@H](Cc1ccccc1)NC(=O)[C@H](N)Cc1ccccc1)C(=O)N[C@H](CCCCN)C(=O)N1CCC(N)(C(=O)O)CC1 0.00262

Fill in reported EC50 for this entry: CC(C)C[C@@H](NC(=O)[C@@H](Cc1ccccc1)NC(=O)CN[C@H]1C[C@@H]1c1ccccc1)C(=O)N[C@H](CCCCN)C(=O)N1CCOCC1 0.08

Further cases:
Please indicate EC50 recorded for CC(C)C[C@@H](NC(=O)[C@@H](Cc1ccccc1)NC(=O)CNCCc1ccccc1)C(=O)N[C@H](CCCCN)C(=O)N1CCC(N)(C(=O)O)CC1 (H-[Gly(NCH2CH2Ph)][dF][dL][dK]-{Piperidin1yl(4-NH2,4-COOH)}) 0.054

* * *

# Measured on: Mu-type opioid receptor (Homo sapiens)
# Sequence (P35372 whole entry): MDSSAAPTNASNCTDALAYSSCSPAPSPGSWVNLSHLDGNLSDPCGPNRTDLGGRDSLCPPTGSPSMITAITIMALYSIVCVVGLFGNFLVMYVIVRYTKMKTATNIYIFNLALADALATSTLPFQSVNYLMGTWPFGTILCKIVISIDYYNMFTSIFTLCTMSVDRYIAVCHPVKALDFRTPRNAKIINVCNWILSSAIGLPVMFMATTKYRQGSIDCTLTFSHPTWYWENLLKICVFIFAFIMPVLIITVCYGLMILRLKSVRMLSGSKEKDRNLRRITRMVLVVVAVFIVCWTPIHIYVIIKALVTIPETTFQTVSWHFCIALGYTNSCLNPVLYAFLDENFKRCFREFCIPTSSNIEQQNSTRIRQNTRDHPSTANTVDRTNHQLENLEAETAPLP
# Assay method text: Agonist activity at human mu opioid receptor assessed as inhibition of forskolin-induced cAMP accumulation
Where a SMILES comes first, the peptide text is derived from it. [ ]: non-standard residue; d: D form. The star is where a group is joined. Gly(N-(2R-Ph-propyl)) = C[C@@H](CNCC(=O)O)c1ccccc1; X1 = CNC(=O)NC1CCN(*)CC1
Assay readout: EC50

Item CNC(=O)NC1CCN(C(=O)[C@@H](CCCCN)NC(=O)[C@@H](CC(C)C)NC(=O)[C@@H](Cc2ccccc2)NC(=O)CNC[C@H](C)c2ccccc2)CC1 (H-[Gly(N-(2R-Ph-propyl))][dF][dL][dK]-X1) : provide EC50 > 50 µM

* * *

# Assay method text: Half life in Beagle dog at 0.5 mg/kg, iv measured up to 24 hrs
# Type: ADME, organism-based, Canis lupus familiaris
# Experimental context: in vivo
Where a SMILES comes first, the peptide text is derived from it. [ ]: non-standard residue; d: D form. The star is where a group is joined. Gly(N-(2R-Ph-propyl)) = C[C@@H](CNCC(=O)O)c1ccccc1; X1 = CNC(=O)NC1CCN(*)CC1
Assay readout: half-life (h)
Reply with just the number (in h).

Fill in reported half-life for this entry: CNC(=O)NC1CCN(C(=O)[C@@H](CCCCN)NC(=O)[C@@H](CC(C)C)NC(=O)[C@@H](Cc2ccccc2)NC(=O)CNC[C@H](C)c2ccccc2)CC1 (H-[Gly(N-(2R-Ph-propyl))][dF][dL][dK]-X1) 4.45

* * *

# Assay method text: Unbound fraction in Sprague-Dawley rat plasma at 1 mg/kg, iv
# Format: ADME, organism-based
Where a SMILES comes first, the peptide text is derived from it. [ ]: non-standard residue; d: D form. The star is where a group is joined. Gly(N-(2R-Ph-propyl)) = C[C@@H](CNCC(=O)O)c1ccccc1; X1 = CNC(=O)NC1CCN(*)CC1
Assay readout: fraction unbound
Output: the number by itself.

For the molecule CNC(=O)NC1CCN(C(=O)[C@@H](CCCCN)NC(=O)[C@@H](CC(C)C)NC(=O)[C@@H](Cc2ccccc2)NC(=O)CNC[C@H](C)c2ccccc2)CC1 (H-[Gly(N-(2R-Ph-propyl))][dF][dL][dK]-X1) , give its reported fraction unbound. 0.211

* * *

# Measured on: Cytochrome P450 1A2 (Homo sapiens, UniProt P05177)
# Sequence (P05177 whole entry): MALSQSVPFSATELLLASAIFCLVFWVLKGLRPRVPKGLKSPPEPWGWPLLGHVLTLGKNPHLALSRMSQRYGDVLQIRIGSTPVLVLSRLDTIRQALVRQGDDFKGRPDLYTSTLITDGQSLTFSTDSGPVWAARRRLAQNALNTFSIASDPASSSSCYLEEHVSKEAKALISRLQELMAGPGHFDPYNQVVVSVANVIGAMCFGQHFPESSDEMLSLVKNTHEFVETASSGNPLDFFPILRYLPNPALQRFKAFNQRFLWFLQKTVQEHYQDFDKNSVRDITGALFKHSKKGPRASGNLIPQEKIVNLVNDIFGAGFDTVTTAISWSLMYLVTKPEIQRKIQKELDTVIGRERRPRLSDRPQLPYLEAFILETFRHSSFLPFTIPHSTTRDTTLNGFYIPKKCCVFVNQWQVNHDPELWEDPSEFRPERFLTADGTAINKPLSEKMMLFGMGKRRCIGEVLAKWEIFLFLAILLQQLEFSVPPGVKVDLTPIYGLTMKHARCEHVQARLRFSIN
pIC50: −log10 of the molar value. Where a SMILES comes first, the peptide text is derived from it. [ ]: non-standard residue; d: D form. The star is where a group is joined. Gly(N-(2R-Ph-propyl)) = C[C@@H](CNCC(=O)O)c1ccccc1; X1 = CNC(=O)NC1CCN(*)CC1
Assay readout: pIC50

Please report the measured pIC50 for CNC(=O)NC1CCN(C(=O)[C@@H](CCCCN)NC(=O)[C@@H](CC(C)C)NC(=O)[C@@H](Cc2ccccc2)NC(=O)CNC[C@H](C)c2ccccc2)CC1 (H-[Gly(N-(2R-Ph-propyl))][dF][dL][dK]-X1) tested on Cytochrome P450 1A2 (Homo sapiens, UniProt P05177). < 4.52

* * *

# Assay method text: Unbound brain-to-plasma concentration ratio in Sprague-Dawley rat at 1 mg/kg, iv
# Type: ADME, organism-based
# Experimental context: read-out: K(p,uu,brain)
Where a SMILES comes first, the peptide text is derived from it. [ ]: non-standard residue; d: D form. The star is where a group is joined. Gly(N-(2R-Ph-propyl)) = C[C@@H](CNCC(=O)O)c1ccccc1; X1 = CNC(=O)NC1CCN(*)CC1
Assay readout: Kp uu

Assign Kp uu to the following record: CNC(=O)NC1CCN(C(=O)[C@@H](CCCCN)NC(=O)[C@@H](CC(C)C)NC(=O)[C@@H](Cc2ccccc2)NC(=O)CNC[C@H](C)c2ccccc2)CC1 (H-[Gly(N-(2R-Ph-propyl))][dF][dL][dK]-X1) 0.006

* * *

# Assay method text: Half life in mouse liver microsomes
# Format: ADME, Microsome
Where a SMILES comes first, the peptide text is derived from it. [ ]: non-standard residue; d: D form. The star is where a group is joined. Gly(N-(2R-Ph-propyl)) = C[C@@H](CNCC(=O)O)c1ccccc1; X1 = CNC(=O)NC1CCN(*)CC1
Assay readout: half-life (h)
Value expressed in h; do not type the unit.

Query half-life for CNC(=O)NC1CCN(C(=O)[C@@H](CCCCN)NC(=O)[C@@H](CC(C)C)NC(=O)[C@@H](Cc2ccccc2)NC(=O)CNC[C@H](C)c2ccccc2)CC1 (H-[Gly(N-(2R-Ph-propyl))][dF][dL][dK]-X1) 1.92

* * *

# Measured on: Kappa-type opioid receptor (Homo sapiens)
# Assay method text: Agonist activity at human kappa opioid receptor expressed in HEK293 cells assessed as inhibition of forskolin-induced cAMP accumulation measured after 5 hrs by One-Glo luciferase assay
Where a SMILES comes first, the peptide text is derived from it. [ ]: non-standard residue; d: D form. The star is where a group is joined. Gly(N-(2R-Ph-propyl)) = C[C@@H](CNCC(=O)O)c1ccccc1; X1 = CNC(=O)NC1CCN(*)CC1
Overview of reported log10 EC50 across a group of compounds:
On a log10 scale: recorded EC50, unit nM.

Reference set (3 entries):
For the compound CC(C)C[C@@H](NC(=O)[C@@H](Cc1ccccc1)NC(=O)CNCC1(c2ccccc2)CC1)C(=O)N[C@H](CCCCN)C(=O)N1CCC(N)(C(=O)O)CC1 , give its reported log10 EC50. -1.24

For the compound CC(C)C[C@@H](NC(=O)[C@@H](Cc1ccccc1)NC(=O)CNC[C@@H](c1ccccc1)C(C)C)C(=O)N[C@H](CCCCN)C(=O)N1CCC(N)(C(=O)O)CC1 , give its measured log10 EC50 value. -2.02

State, in one line, measured log10 EC50 of CCC(CNCC(=O)N[C@H](Cc1ccccc1)C(=O)N[C@H](CC(C)C)C(=O)N[C@H](CCCCN)C(=O)N1CCC(N)(C(=O)O)CC1)c1ccccc1 (mixture of isomers) -2.54

---
Give me measured log10 EC50, please, for this compound: CC(C)C[C@@H](NC(=O)[C@@H](Cc1ccccc1)NC(=O)CNCCc1ccccc1)C(=O)N[C@H](CCCCN)C(=O)N1CCOCC1 -1.32

Could you please provide reported log10 EC50 for CNC(=O)NC1CCN(C(=O)[C@@H](CCCCN)NC(=O)[C@@H](CC(C)C)NC(=O)[C@@H](Cc2ccccc2)NC(=O)CNC[C@H](C)c2ccccc2)CC1 (H-[Gly(N-(2R-Ph-propyl))][dF][dL][dK]-X1) ? Thanks! -3.28

Entry CC(C)C[C@@H](NC(=O)[C@@H](Cc1ccccc1)NC(=O)CNCC(C)(C)c1ccccc1)C(=O)N[C@H](CCCCN)C(=O)N1CCC(N)(C(=O)O)CC1 needs its log10 EC50 filled in; supply it. -1.11

Please report the measured log10 EC50 for CC(C)C[C@@H](NC(=O)[C@@H](Cc1ccccc1)NC(=O)CNCCCc1ccccc1)C(=O)N[C@H](CCCCN)C(=O)N1CCOCC1 -1.35

Quote log10 EC50 reported for CC(C)C[C@@H](NC(=O)[C@@H](Cc1ccccc1)NC(=O)CNC[C@H](C)c1ccccc1)C(=O)N[C@H](CCCCN)C(=O)N1CCC(N)(C(=O)O)CC1 please. -2.85

Provide log10 EC50 value for the following compound: CC(C)C[C@@H](NC(=O)[C@@H](Cc1ccccc1)NC(=O)CNC[C@@H](C)c1ccccc1)C(=O)N[C@H](CCCCN)C(=O)N1CCC(N)(C(=O)O)CC1 -1.81
